A collection of compounds and their measured inhibition of growth at 32 µg/mL
Tested on: Acinetobacter baumannii
Assay: Growth inhibition of Acinetobacter baumannii ATCC 19606 at 32 ug/ml after 18 hrs
Type: functional
Details: ATCC 19606 = CIP 70.34 = JCM 6841, 18 h, read-out: GI
A number alone suffices; assume %.

Solved entries (count: 2):
Reported inhibition of growth at 32 µg/mL for O=C(O)[C@@H]1CCCN1C(=O)N1CCCN1C(=O)[C@@H]1CCCN1C(=O)N1CCCN1C(=O)[C@@H]1CCCN1C(=O)N1CCCN1C(=O)[C@@H]1CCCN1C(=O)N1CCCN1C(=O)OCc1ccccc1 was 14

Reported inhibition of growth at 32 µg/mL for CN1CCCN1C(=O)[C@@H]1CCCN1C(=O)N1CCCN1C(=O)[C@@H]1CCCN1C(=O)N1CCCN1C(=O)[C@@H]1CCCN1C(=O)N1CCCN1C(=O)[C@@H]1CCCN1C(=O)N1CCCN1C(=O)[C@@H]1CCCN1C(=O)N1CCCN1C(=O)[C@@H]1CCCN1C(=O)N1CCCN1C(=O)[C@@H]1CCCN1C(=O)N1CCCN1C(=O)[C@@H]1CCCN1C(=O)N1CCCN1C(=O)OCc1ccccc1 was -6.74

New cases:
Reported inhibition of growth at 32 µg/mL for CC(C)(C)OC(=O)[C@@H]1CCCN1C(=O)N1CCCN1C(=O)[C@@H]1CCCN1C(=O)N1CCCN1C(=O)[C@@H]1CCCN1C(=O)N1CCCN1C(=O)[C@@H]1CCCN1C(=O)N1CCCN1C(=O)[C@@H]1CCCN1C(=O)N1CCCN1C(=O)[C@@H]1CCCN1C(=O)N1CCCN1C(=O)[C@@H]1CCCN1C(=O)N1CCCN1C(=O)[C@@H]1CCCN1C(=O)N1CCCN1 was 17.8

Reported inhibition of growth at 32 µg/mL for CC(C)(C)OC(=O)[C@@H]1CCCN1C(=O)N1CCCN1C(=O)[C@@H]1CCCN1C(=O)N1CCCN1C(=O)[C@@H]1CCCN1C(=O)N1CCCN1C(=O)[C@@H]1CCCN1C(=O)N1CCCN1C(=O)OCc1ccccc1 was 30.2

Reported inhibition of growth at 32 µg/mL for CC(C)(C)OC(=O)N1CCC[C@H]1C(=O)N1CCCN1C(=O)N1CCC[C@H]1C(=O)N1CCCN1C(=O)N1CCC[C@H]1C(=O)N1CCCN1C(=O)N1CCC[C@H]1C(=O)N1CCCN1 was 7.37

Reported inhibition of growth at 32 µg/mL for CC(C)(C)OC(=O)[C@@H]1CCCN1C(=O)N1CCCN1C(=O)[C@@H]1CCCN1C(=O)N1CCCN1C(=O)[C@@H]1CCCN1C(=O)N1CCCN1C(=O)[C@@H]1CCCN1C(=O)N1CCCN1C(=O)[C@@H]1CCCN1C(=O)N1CCCN1C(=O)[C@@H]1CCCN1C(=O)N1CCCN1C(=O)[C@@H]1CCCN1C(=O)N1CCCN1C(=O)[C@@H]1CCCN1C(=O)N1CCCN1C(=O)OCc1ccccc1 was 15.9

Reported inhibition of growth at 32 µg/mL for O=C([C@@H]1CCCN1C(=O)N1CCCN1C(=O)[C@@H]1CCCN1C(=O)N1CCCN1C(=O)[C@@H]1CCCN1C(=O)N1CCCN1C(=O)[C@@H]1CCCN1C(=O)N1CCCN1C(=O)[C@@H]1CCCN1C(=O)N1CCCN1C(=O)[C@@H]1CCCN1C(=O)N1CCCN1C(=O)[C@@H]1CCCN1C(=O)N1CCCN1C(=O)[C@@H]1CCCN1)N1CCCN1 was -4.27

Source of measurements: ChEMBL document CHEMBL4196059
